Biological target: T1, human GIP receptor (human, UniProt P48546 22-466)
T1 sequence: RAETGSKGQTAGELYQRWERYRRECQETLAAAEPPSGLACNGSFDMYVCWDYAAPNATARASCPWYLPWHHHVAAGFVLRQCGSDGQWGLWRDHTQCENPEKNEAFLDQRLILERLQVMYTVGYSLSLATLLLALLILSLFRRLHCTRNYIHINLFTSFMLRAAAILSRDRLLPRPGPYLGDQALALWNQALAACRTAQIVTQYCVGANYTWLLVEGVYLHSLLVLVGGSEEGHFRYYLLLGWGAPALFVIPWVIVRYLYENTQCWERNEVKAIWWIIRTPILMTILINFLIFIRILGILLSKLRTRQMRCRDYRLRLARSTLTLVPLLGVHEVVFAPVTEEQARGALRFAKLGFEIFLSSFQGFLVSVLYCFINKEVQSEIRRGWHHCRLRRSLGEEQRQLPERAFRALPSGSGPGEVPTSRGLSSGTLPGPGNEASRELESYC
Assay: radioligand binding
*1 amine or outer side, *2 acyl side, *3 side chain or, on linkers, in order; H or OH if unused. Where no end group is shown, it is not given here. Side-chain parts run from the residue outwards. The star is where a group is joined. C18 diacid = O=C(O)CCCCCCCCCCCCCCCCC(=O)*; γGlu = O=C(O)[C@H](CCC(=O)[*:2])N[*:1]; Palmitoyl = CCCCCCCCCCCCCCCC(=O)*; AEEA = NCCOCCOCC(=O)O
Measure: IC50 (nM)
Give bare numbers, in nM.

Solved entries:
{"Binder": "Ac-TFISDK([γGlu-Palmitoyl])SIALDKIRQQEFVNWLLAQKG [[Nα-Ac, L14, R18, E21] hGIP(5-31)-K10 (γE-C16)]", "IC50, nM": 0.21}
{"Binder": "Ac-TFISDYK(C18 diacid)IALDKIRQQEFVNWLLAQKG [[Nα-Ac, L14, R18, E21] hGIP(5-31)-K11 (-C18-OH)]", "IC50, nM": 0.9}

Can you give me IC50 for all of these, one by one?
1. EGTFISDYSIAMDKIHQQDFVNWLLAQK-NH2 [hGIP(3-30) amide]
2. Ac-TFISDYK([AEEA-AEEA-γGlu-C18 diacid])IALDKIRQQEFVNWLLAQKG [[Nα-Ac, L14, R18, E21] hGIP(5-31)-K11(OEG2-γE-C18-OH)]
3. Ac-TFISDYK([AEEA-AEEA-C18 diacid])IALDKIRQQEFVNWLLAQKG [[Nα-Ac, L14, R18, E21] hGIP(5-31)-K11(OEG2-C18-OH)]
4. FISDYSIALDKIRQQEFVNWLLAQKG [[L14, R18, E21] hGIP(6-31)]
5. TFISDYSIALDKIRQQEFVNWLLAQKG [[L14, R18, E21] hGIP(5-31)]

(A)
1. 1.55
2. 3.83
3. 2.49
4. 6.45
5. 1.8
